Biological target: UniProt:Q2G1M9
Test: biochemical
Type: biochemical, S. aureus
Conditions: inhibition constant (Ki) SbnE, ATP
measureName: Ki (µM)

1) CCC(=O)[C@@H](C)C[C@@H](C)C[C@@H](C)CC[C@H](O)C[C@H](O)[C@H](CC(C)C)[C@H](O)c1cc(O)cc(O)c1: 680

* * *

Target: AsbA (Bacillus anthracis)
Sequence (A0A0F7RJ52 whole entry, looked up): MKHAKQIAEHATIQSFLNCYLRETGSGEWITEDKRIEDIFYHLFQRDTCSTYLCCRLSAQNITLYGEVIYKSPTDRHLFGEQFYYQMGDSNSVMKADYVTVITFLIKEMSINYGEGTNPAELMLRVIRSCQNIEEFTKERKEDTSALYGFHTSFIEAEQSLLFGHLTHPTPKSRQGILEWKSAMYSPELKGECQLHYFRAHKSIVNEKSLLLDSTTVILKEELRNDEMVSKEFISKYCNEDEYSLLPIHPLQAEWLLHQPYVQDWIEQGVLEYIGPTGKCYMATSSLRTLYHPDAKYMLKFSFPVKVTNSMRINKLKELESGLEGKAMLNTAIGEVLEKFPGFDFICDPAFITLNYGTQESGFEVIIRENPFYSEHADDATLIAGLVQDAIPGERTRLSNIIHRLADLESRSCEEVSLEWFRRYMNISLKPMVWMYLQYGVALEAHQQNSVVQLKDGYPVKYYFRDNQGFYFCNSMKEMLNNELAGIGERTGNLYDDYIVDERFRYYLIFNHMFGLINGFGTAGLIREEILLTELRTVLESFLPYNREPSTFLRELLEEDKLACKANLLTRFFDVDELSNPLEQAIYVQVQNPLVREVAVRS
Test: biochemical
Assay type: biochemical, B. anthracis
Details: inhibition constant (Ki) AsbA, ATP
measureName: Ki (µM)

1) CCC(=O)[C@@H](C)C[C@@H](C)C[C@@H](C)CC[C@H](O)C[C@H](O)[C@H](CC(C)C)[C@H](O)c1cc(O)cc(O)c1: 230

* * *

Tested on: B. anthracis (Sterne 34F2)
Assay: microbe, parasite or virus in culture
Type: cell-based
Conditions: Bacillus anthracis, read-out: IDM IC50
pIC50: −log10 of the molar value.
measureName: pIC50

1) CCC(=O)[C@@H](C)C[C@@H](C)C[C@@H](C)CC[C@H](O)C[C@H](O)[C@H](CC(C)C)[C@H](O)c1cc(O)cc(O)c1: 3.96

* * *

Molecular target: SbnE (Staphylococcus aureus, UniProt Q2G1M9)
Sequence (Q2G1M9 whole entry): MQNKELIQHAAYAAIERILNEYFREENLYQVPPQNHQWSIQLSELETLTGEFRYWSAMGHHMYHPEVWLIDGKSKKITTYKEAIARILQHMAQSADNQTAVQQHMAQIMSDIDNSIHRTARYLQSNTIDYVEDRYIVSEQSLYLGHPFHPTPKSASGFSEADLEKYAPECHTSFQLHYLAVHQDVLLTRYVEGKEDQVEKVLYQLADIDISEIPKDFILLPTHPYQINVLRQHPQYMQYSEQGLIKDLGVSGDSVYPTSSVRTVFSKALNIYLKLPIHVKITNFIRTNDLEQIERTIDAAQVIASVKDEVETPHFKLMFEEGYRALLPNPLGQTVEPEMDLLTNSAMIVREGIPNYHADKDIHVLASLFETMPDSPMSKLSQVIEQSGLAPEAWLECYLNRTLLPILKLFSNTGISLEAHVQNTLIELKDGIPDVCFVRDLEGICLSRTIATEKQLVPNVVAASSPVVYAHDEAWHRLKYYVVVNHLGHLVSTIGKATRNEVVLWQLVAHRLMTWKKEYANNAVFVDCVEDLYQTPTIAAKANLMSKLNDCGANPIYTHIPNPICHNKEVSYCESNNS
Assay: biochemical
Format: biochemical, S. aureus
Settings: inhibition constant (Ki) SbnE, polyamine substrate
measureName: Ki

1. CCC(=O)[C@@H](C)C[C@@H](C)C[C@@H](C)CC[C@H](O)C[C@H](O)[C@H](CC(C)C)[C@H](O)c1cc(O)cc(O)c1: 210 µM

* * *

System: E. coli (MC 1061)
Experiment: microbe, parasite or virus in culture
Type: cell-based
Conditions: Escherichia coli, read-out: IDM IC50
measureName: IC50

1. CCC(=O)[C@@H](C)C[C@@H](C)C[C@@H](C)CC[C@H](O)C[C@H](O)[C@H](CC(C)C)[C@H](O)c1cc(O)cc(O)c1: 4.2 µM

* * *

Tested on: MRSA (USA 300)
Assay: microbe, parasite or virus in culture
Type: cell-based, methicillin-resistant Staphylococcus aureus
Conditions: Staphylococcus aureus, read-out: IRM IC50
pIC50: −log10 of the molar value.
measureName: pIC50

1. CCC(=O)[C@@H](C)C[C@@H](C)C[C@@H](C)CC[C@H](O)C[C@H](O)[C@H](CC(C)C)[C@H](O)c1cc(O)cc(O)c1: 3.89

* * *

Biological target: UniProtKB Q2G1M9
Assay: biochemical
Type: biochemical, S. aureus
Details: inhibition constant (Ki) SbnE, citric acid
measureName: Ki (µM)

1. CCC(=O)[C@@H](C)C[C@@H](C)C[C@@H](C)CC[C@H](O)C[C@H](O)[C@H](CC(C)C)[C@H](O)c1cc(O)cc(O)c1: 50

* * *

Test system: S. typhimurium
Test: microbe, parasite or virus in culture
Format: cell-based
Details: Salmonella enterica, read-out: IRM IC50
pIC50: −log10 of the molar value.
measureName: pIC50

1) CCC(=O)[C@@H](C)C[C@@H](C)C[C@@H](C)CC[C@H](O)C[C@H](O)[C@H](CC(C)C)[C@H](O)c1cc(O)cc(O)c1: < 3.00

* * *

Molecular target: UniProt A0A0F7RJ52
Experiment: biochemical
Format: biochemical, B. anthracis
Conditions: inhibition constant (Ki) AsbA, citric acid
measureName: Ki (µM)

1. CCC(=O)[C@@H](C)C[C@@H](C)C[C@@H](C)CC[C@H](O)C[C@H](O)[C@H](CC(C)C)[C@H](O)c1cc(O)cc(O)c1: 110
